- Test system: MERS WT
- protocolSummary: microbe, parasite or virus in culture
- Assay type: cell-based
- conditionSummary: Middle East respiratory syndrome-related coronavirus, read-out: MERS WT (μM)
measurementKind: log10 of IC50 (log10 of the value in µM)

[[record]]
molecule = "CC(C)CC(NC(=O)OCc1ccccc1)C(=O)NC(C)C(=O)C(=O)NCC(=O)NC(Cc1ccc2ccccc2c1)C(N)=O (stereo not drawn)"
measuredresult = 0.86

[[record]]
molecule = "CC(C)CC(NC(=O)OCc1ccccc1)C(=O)NC(Cc1ccccc1)C(=O)C(=O)NCC(=O)NC(Cc1ccc2ccccc2c1)C(N)=O (stereo not drawn)"
measuredresult = 0.70

[[record]]
molecule = "Cc1cccc(CC(=O)NC(Cc2ccccc2)C(=O)NC(C)C(=O)C(=O)NC(Cc2ccccc2)C(=O)NC(C)(C)C(N)=O)c1 (stereo not drawn)"
measuredresult = 1.93

[[record]]
molecule = "CC(NC(=O)C(Cc1ccccc1F)NC(=O)Cc1ccccc1)C(=O)C(=O)NC(Cc1ccccc1)C(=O)NC(C)(C)C(N)=O (stereo not drawn)"
measuredresult = 2.29

[[record]]
molecule = "CC(NC(=O)C(Cc1ccccc1)NC(=O)c1cccc(F)c1)C(=O)C(=O)NC(Cc1ccccc1)C(=O)NC(C)(C)C(N)=O (stereo not drawn)"
measuredresult = 2.18

